assay: Pharmacokinetic study in mice, i.p. injection; format: in vivo; settings: C57BL/6, mouse, ip, 48 mg kg^−1 i.p., plasma, mean ± S.D., n = 3
In this section we review reported half-life values for a set of compounds.
reported property: half-life (h)

[[record]]
compound = "Oc1cc(O)c2c(c1)O[C@H](c1ccc(O)c(O)c1)[C@@H](O)[C@@H]2c1c(O)cc(O)c2c1O[C@H](c1ccc(O)c(O)c1)[C@@H](O)C2 [Compound 1, procyanidin B3]"
unit_of_measure = "h"
val = 4.43

[[record]]
compound = "CC(C)c1c(O)cc(O)c2c1O[C@H](c1ccc(O)c(O)c1)[C@@H](O)[C@@H]2c1c(O)cc(O)c2c1O[C@H](c1ccc(O)c(O)c1)[C@@H](O)C2 [Compound 6c]"
unit_of_measure = "h"
val = 2.01

